Percent Control overview
System: MYLK4
assay_context: Compound Concentration (nM):1000;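 further: KINOMEscan scanMAX binding as percent activity remaining versus control; lower means stronger binding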
Just the number in %, nothing appended.

{"compound": "Cl.O=S1CCN(Cc2ccc(-c3ccc4ncnc(Nc5ccc(OCc6ccccc6)c(F)c5)c4c3)o2)CC1 [GW576924A]", "unit": "%", "Percent Control": 100}
{"compound": "NS(=O)(=O)c1ccc(N/N=C2\\C(=O)Nc3ccc(-c4cnco4)cc32)cc1", "unit": "%", "Percent Control": 49}
{"compound": "C[C@@H](Oc1cc(-n2cnc3ccc(OC4CCN(C)CC4)cc32)sc1C(N)=O)c1ccccc1Cl [GSK579289A]", "unit": "%", "Percent Control": 62}
{"compound": "CN1CCN(C(=O)c2ccc(NC(=O)Nc3ccc(N(C)c4ccnc(Nc5ccc(CS(C)(=O)=O)cc5)n4)cc3)cc2)CC1.Cl [GW830263A]", "unit": "%", "Percent Control": 98}
{"compound": "COc1ccc(COc2ccc(Cc3cnc(N)nc3N)cc2OC)cc1 [GW632580X]", "unit": "%", "Percent Control": 100}
{"compound": "COc1ccccc1-c1cc(/C=C2\\C(=O)Nc3ncc(Br)cc32)cc(Br)c1O [GW442130X]", "unit": "%", "Percent Control": 100}
{"compound": "CN(C)c1cc2c(Nc3ccc4c(cnn4Cc4ccccc4)c3)ncnc2cn1 [GW282974X]", "unit": "%", "Percent Control": 86}
{"compound": "Cl.O=C(Nc1ccc(Oc2ccc3[nH]c(NC(=O)c4ccco4)nc3c2)cc1)Nc1cc(C(F)(F)F)ccc1F [GW683134A]", "unit": "%", "Percent Control": 100}

Query block: For the compound O=C(Nc1n[nH]c2nc(-c3ccc(O)cc3)c(Br)cc12)C1CC1 , what Percent Control is on record?
Result block: 100

* * *

Tested on: PFCDPK1(P.falciparum)
Construct: gene CDPK1
assay_context: Compound Concentration (nM):1000
Examples of compounds with documented Percent Control follow.
Field format: number, assumed %, no unit text.

Here's what some known entries look like.
{"compound": "COc1cccc(-c2c[nH]c3c(N/N=C/c4ccncc4)ncnc23)c1 [GW814408X]", "Percent Control [%]": 5.2}
{"compound": "CC(C)COC(=O)c1ccc2c(c1)/C(=C/Nc1ccc(S(N)(=O)=O)cc1)C(=O)N2 [GW416981X]", "Percent Control [%]": 71}

Turning now to a further record.
Query block: What does the data say about its Percent Control? Entry: Cl.c1ccc(Cc2nc3ccc(Nc4ncnc5ccccc45)cc3[nH]2)cc1 [GR269666A]
Result block: 83

* * *

Test system: EPHA3
assay_context: Compound Concentration (nM):1000
Measured Percent Control, listed per entry for reference.
A complete answer gives the number followed by the unit.

Below, 2 molecules whose answers are already recorded.
{"molecule": "CCc1ccc(Oc2nccc(-c3c(-c4ccc(F)cc4)ncn3C3CCNCC3)n2)cc1", "assay_target": "EPHA3", "readout_type": "Percent Control", "result": "95%"}
{"molecule": "CCS(=O)(=O)c1ccc(OC)c(Nc2ncc(-c3cccc(F)c3)o2)c1 [GW621970X]", "assay_target": "EPHA3", "readout_type": "Percent Control", "result": "68%"}

Now consider the entry below.
Query block: Fill blank: measured Percent Control of the molecule COc1ccc2[nH]c3c4[nH]c5ccc(OC)cc5c4c4c(c3c2c1)C(=O)NC4=O [GW296115X] is ____.
Result block: 86%

* * *

System: TAOK2
assay_context: Compound Concentration (nM):1000
readout_type: Percent Control (%)
State the answer as a number, implicitly in %.

{"compound": "NS(=O)(=O)c1ccc(Nc2ncc(-c3ccccc3)o2)cc1 [GW572399X]", "assay_target": "TAOK2", "readout_type": "Percent Control", "recorded_number": 97}
{"compound": "COc1ccc2[nH]c3c4[nH]c5ccc(OC)cc5c4c4c(c3c2c1)C(=O)NC4=O [GW296115X]", "assay_target": "TAOK2", "readout_type": "Percent Control", "recorded_number": 96}
{"compound": "NS(=O)(=O)c1ccc(N/N=C2\\C(=O)Nc3ccc(C(=O)NCc4ccncc4)cc32)cc1 [GW300657X]", "assay_target": "TAOK2", "readout_type": "Percent Control", "recorded_number": 99}

Query block: I'd like to know its Percent Control. The compound in question is COc1cc(C=NNc2ncnc3c2cnn3-c2ccccc2)ccc1O [GW513184X]
Result block: 100

* * *

System: EGFR(E746-A750del)
assay_context: Compound Concentration (nM):1000
The following molecules are listed with their measured Percent Control values.
Just the number please, in %, no unit attached.

{"molecule": "NS(=O)(=O)c1ccc(Nc2ncc(-c3ccccc3)o2)cc1 [GW572399X]", "assay_target": "EGFR(E746-A750del)", "unit": "%", "recorded_number": 98}

Query block: For the molecule COc1ccccc1-c1cc(/C=C2\C(=O)Nc3ncc(Br)cc32)cc(Br)c1O [GW442130X] , what Percent Control is on record?
Result block: 100

Query block: Try the molecule COc1cccc(-n2ncc3c(N/N=C/c4ccncc4)ncnc32)c1 [GW784752X]
Result block: 75

* * *

Test system: CLK1
assay_context: Compound Concentration (nM):1000
// values below are reported Percent Control
The response must be a number in % with no trailing unit.

Please review the entries below; each comes with its answer.
{"molecule": "COc1cc(/C=N/Nc2ncnc3[nH]ncc23)ccc1O [GW578748X]", "recorded_number": 19}
{"molecule": "COc1ccc2c(-c3ccnc(Nc4cccc(OC(F)(F)F)c4)n3)cnn2n1 [GW810372X]", "recorded_number": 1.3}
{"molecule": "Cl.O=C(Nc1ccc(Oc2ccc3[nH]c(NC(=O)c4ccco4)nc3c2)cc1)Nc1cc(C(F)(F)F)ccc1F [GW683134A]", "recorded_number": 47}
{"molecule": "COc1cc(C)c(N(C)C(=O)CN(C)C)cc1Nc1nc(Nc2cccc(F)c2C(N)=O)c2cc[nH]c2n1", "recorded_number": 54}
{"molecule": "COc1ccc(COc2ccc(Cc3cnc(N)nc3N)cc2OC)cc1 [GW632580X]", "recorded_number": 100}

Query block: Endpoint output: Percent Control of Cc1cc(O)cc(C)c1/C=C/c1cncc(C(N)=O)c1 [GW435821X] . Value?
Result block: 89

Query block: Now this one: COc1cc2ncn(-c3cc(O[C@H](C)c4ccccc4Cl)c(C(N)=O)s3)c2cc1OC [GSK237701A]
Result block: 81

Query block: Record: NS(=O)(=O)c1ccc(Nc2ncc(-c3ccccc3)o2)cc1 [GW572399X]
Result block: 100

Query block: Same for Cl.O=S1CCN(Cc2ccc(-c3ccc4ncnc(Nc5ccc(OCc6ccccc6)c(F)c5)c4c3)o2)CC1 [GW576924A]
Result block: 100

* * *

The molecules listed here are annotated with their Percent Control.
System: TEC
assay_context: Compound Concentration (nM):1000
Respond with the bare value in %.

Recorded results for 5 molecules are shown here.
{"molecule": "NS(=O)(=O)c1ccc(N/N=C2\\C(=O)Nc3ccc(C(=O)NCc4ccncc4)cc32)cc1 [GW300657X]", "Percent Control [%]": 100}
{"molecule": "C/C(Nc1ccc(S(N)(=O)=O)cc1)=C1/C(=O)Nc2ccccc21 [GW335962X]", "Percent Control [%]": 100}
{"molecule": "CC1=C(C(=O)Nc2ccc3[nH]ncc3c2)C(c2ccc3ccccc3c2)CC(=O)N1 (centres unmarked) [GSK270822A]", "Percent Control [%]": 90}
{"molecule": "COC(=O)Nc1nc2ccc(Oc3ccc(NC(=O)Nc4cc(C(F)(F)F)ccc4F)cc3)cc2s1.Cl [GW693917A]", "Percent Control [%]": 78}
{"molecule": "COc1ccc2cc(-c3c(-c4ccncc4)nc(-c4ccc(S(C)(=O)=O)cc4C)n3C)ccc2c1 [SB-633825]", "Percent Control [%]": 66}

Query block: Quick one: Percent Control for CN(C)c1cc2c(Nc3ccc4c(cnn4Cc4ccccc4)c3)ncnc2cn1 [GW282974X] ?
Result block: 84

Query block: Entry Cl.O=C(O[C@H]1CN[C@H](C#Cc2cc3ncnc(Nc4ccc5c(cnn5Cc5ccccc5)c4)c3s2)C1)N1CCOCC1 [GSK200398A] please
Result block: 100

Query block: Next: Cc1cc(O)cc(C)c1/C=C/c1cncc(C(N)=O)c1 [GW435821X]
Result block: 100

* * *

System: TLK2
assay_context: Compound Concentration (nM):1000
Item-by-item account of Percent Control
All answers are understood in %, so give the number only.

{"compound": "O=C(Nc1n[nH]c2nc(-c3ccc(O)cc3)c(Br)cc12)C1CC1 [SB-725317]", "Percent Control [%]": 100}
{"compound": "COc1cc2ncn(-c3cc(O[C@H](C)c4ccccc4Cl)c(C(N)=O)s3)c2cc1OC [GSK237701A]", "Percent Control [%]": 98}
{"compound": "CN(C)CCNC(=O)Nc1ccc(N(C)c2ccnc(Nc3ccc(CS(C)(=O)=O)cc3)n2)cc1.Cl [GW830900A]", "Percent Control [%]": 100}
{"compound": "CC1=C(C(=O)Nc2ccc3[nH]ncc3c2)C(c2ccc(Cl)c(Cl)c2)CC(=O)N1 (stereo not drawn) [GSK299115A]", "Percent Control [%]": 90}
{"compound": "CCS(=O)(=O)c1ccc(OC)c(Nc2ncc(-c3cccc(OC)c3)o2)c1 [GW580509X]", "Percent Control [%]": 99}

Please examine the following record next.
Query block: For TLK2, provide Percent Control of Nc1ncnc2occ(-c3ccc(NC(=O)Nc4cc(C(F)(F)F)ccc4F)cc3)c12 [GW770249X] please.
Result block: 100
